Test: inhibitors of HIV fusion peptide binding, primary screen, biochemical, uHTS, fluorescence dequenching (AID 1986)
Conditions: cell-free peptide binding, 30 min, at 20 µM, active compounds read high
In all, about 290,000 compounds went through this assay and about 890 (0.31%) were called active. Only a selection was taken, and actives are over-represented in it overall.
QUANTITY KIND: inhibition (%)
Could you give me the number in %? Just the number is fine.

Consider the reported inhibition for these molecules:
>>> reading("O=C(O)CCCN1C(=O)/C(=C\\c2ccco2)SC1=S")
53
>>> reading("CCOC(=O)NC(=O)CSc1nc(C)cc(C(F)(F)F)c1C#N")
4.9

What value of measured inhibition is listed for Cc1cccc(C2=N/C(=C\c3cccs3)C(=O)O2)c1 ?
4.7
